# System Name: Histone deacetylase 1 (Homo sapiens)
# Sequence (Q13547 whole entry): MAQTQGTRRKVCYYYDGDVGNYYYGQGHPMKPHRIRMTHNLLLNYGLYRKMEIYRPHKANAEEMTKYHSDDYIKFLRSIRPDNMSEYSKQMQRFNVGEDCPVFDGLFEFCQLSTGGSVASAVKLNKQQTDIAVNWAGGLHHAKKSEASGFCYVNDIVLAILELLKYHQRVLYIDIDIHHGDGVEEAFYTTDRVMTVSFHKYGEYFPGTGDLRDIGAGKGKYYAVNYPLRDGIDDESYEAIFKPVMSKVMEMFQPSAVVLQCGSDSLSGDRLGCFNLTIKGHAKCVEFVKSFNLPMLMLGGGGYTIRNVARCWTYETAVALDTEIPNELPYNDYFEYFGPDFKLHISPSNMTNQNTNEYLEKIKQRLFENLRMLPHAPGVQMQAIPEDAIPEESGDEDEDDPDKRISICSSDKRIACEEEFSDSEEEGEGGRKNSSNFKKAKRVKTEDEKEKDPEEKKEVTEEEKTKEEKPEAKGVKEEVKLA
# Test: Inhibition of HDAC1 (unknown origin) using (FAM)-labeled acetylated peptide as substrate measured after 17 hrs by fluorescence assay
Listing of recorded IC50 by entry.
I only need the number, in nM, no unit after it.

Please review the entries below; each comes with its answer.
| Smiles Notation | System Name | Result Units | IC50 |
| --- | --- | --- | --- |
| CC(C)(C)OC(=O)Nc1cccc(-c2csc(NC(=O)CCCCCC(=O)NO)n2)c1 | Histone deacetylase 1 (Homo sapiens) | nM | 4.2 |
| Nc1cccc(-c2csc(NC(=O)CCCCCC(=O)NO)n2)c1 | Histone deacetylase 1 (Homo sapiens) | nM | 3.8 |
| CCOC(=O)Nc1cccc(-c2csc(NC(=O)CCCCCC(=O)NO)n2)c1 | Histone deacetylase 1 (Homo sapiens) | nM | 2.5 |
| CCOC(=O)Nc1cccc(-c2csc(NC(=O)CCCCCC(=O)Nc3ccccc3N)n2)c1 | Histone deacetylase 1 (Homo sapiens) | nM | 24800 |
| CC(=O)Nc1cccc(-c2csc(NC(=O)CCCCCC(=O)Nc3ccccc3N)n2)c1 | Histone deacetylase 1 (Homo sapiens) | nM | 3200 |
| CC(C)(C)OC(=O)Nc1cccc(-c2csc(NC(=O)CCCCCC(=O)Nc3ccccc3N)n2)c1 | Histone deacetylase 1 (Homo sapiens) | nM | 4200 |

// below: IC50 requested for another molecule
INPUT: Consider the molecule Nc1cccc(-c2csc(NC(=O)CCCCCC(=O)Nc3ccccc3N)n2)c1 and give its measured IC50.
OUTPUT: 2490
